Attribution: the Human Domainome abundance scans (Beltran et al. 2025)

B1: Chromodomain-helicase-DNA-binding protein 4, residues 444 to 496; numbered along this chain, Q14839 (parent)
chain: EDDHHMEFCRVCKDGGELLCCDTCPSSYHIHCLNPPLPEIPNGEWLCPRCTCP

# Variants of: B1
# run.description: abundance fitness (aPCA) (normalised: wild type 0, dead -1); higher = more abundant; growth selection in yeast, the domain comes from the species named
# conditions.used: Homo sapiens
reported.property: abundance fitness
Just the number.

{"columns": ["variant.notation", "measured.number"],
 "data": [
  ["G43P", -0.287],
  ["P36D", -0.323],
  ["E39K", 0.121],
  ["P36Y", -0.539],
  ["L46V", 0.106],
  ["L19V", -0.056],
  ["H5Q", 0.074],
  ["D3I", 0.393],
  ["L46R", 0.008],
  ["L37Y", -0.274]
]}

Then this variant:
Lab note: H31E gave abundance fitness of -0.046
